protocol notes: Drug recovery in urine of Sprague-Dawley rat at 2 mg/kg, iv measured up to 168 hrs
Assay type: ADME, organism-based
Parameters: dose 2 mg/kg, route intravenous
experimental setup: read-out: Drug recovery
assay metric: dose excreted at 168 h (%)
Provide the reading as a plain figure in %.

Please list dose excreted at 168 h recorded for the compound COc1ccc(-n2nc(C(N)=O)c3c2[14C](=O)N(c2ccc(N4CCCCC4=O)cc2)CC3)cc1
51.3

* * *

protocol notes: Drug recovery in feces of bile duct-cannulated Sprague-Dawley rat at 2 mg/kg, iv measured up to 24 hrs
Format: ADME, organism-based
Set-up: dose 2 mg/kg, route intravenous
experimental setup: read-out: Drug recovery
assay metric: dose excreted at 24 h

Give recorded dose excreted at 24 h. COc1ccc(-n2nc(C(N)=O)c3c2[14C](=O)N(c2ccc(N4CCCCC4=O)cc2)CC3)cc1
21.1%
